tested on: CCRF-CEM; experiment: Ability to inhibit human CEM tumor cell proliferation by 50%; type: functional; settings: read-out: ID50 (the source's name)
Entries and their measured IC50 follow.

Below, each entry is followed by its recorded IC50 result.
>  <Smiles String>
CC1(C)OC(c2ccccc2)=CC1=N

>  <Experimental Result>
> 100 µg/mL

$$$$
>  <Smiles String>
CCCCCC1=CC(=N)C(C)(C)O1

>  <Experimental Result>
> 100 µg/mL

$$$$

Request: # return IC50 for COc1ccccc1C1=CC(=O)CO1 , test system: CCRF-CEM
Result: > 100 µg/mL

====

tested on: CCRF-CEM; experiment: Ability to inhibit human CEM tumor cell proliferation by 50%; format: functional; conditions: read-out: ID50 (the source's name)
Experimental Endpoint: IC50 (µg/mL)
Express your answer in µg/mL, writing the number without its unit.

Below, each entry is followed by its recorded IC50 result.
>  <Molecule>
CCC1(C)OC(/C(C)=C/COc2ccc3ccc(=O)oc3c2)=CC1=O (configuration not stated)

>  <Uom>
µg/mL

>  <IC50>
2.49

$$$$
>  <Molecule>
COc1ccccc1C1=CC(=O)C(C)(C)O1

>  <Uom>
µg/mL

>  <IC50>
66.1

$$$$
>  <Molecule>
CC1=CC(=N)C(c2ccccc2)(c2ccccc2)O1

>  <Uom>
µg/mL

>  <IC50>
29.3

$$$$

Request: Check the records and state IC50 for C/C(=C\CO)CC1=CC(=O)C(C)(C)O1
Result: 10.3

Request: Check the records and state IC50 for CCC1OC(/C(C)=C/COc2ccc3ccc(=O)oc3c2)=CC1=O (configuration not stated)
Result: 3.27
